pKi: −log10 of the molar value.
Literature survey of pKi (system: Sodium-dependent noradrenaline transporter (Homo sapiens)).
Sequence (P23975 whole entry): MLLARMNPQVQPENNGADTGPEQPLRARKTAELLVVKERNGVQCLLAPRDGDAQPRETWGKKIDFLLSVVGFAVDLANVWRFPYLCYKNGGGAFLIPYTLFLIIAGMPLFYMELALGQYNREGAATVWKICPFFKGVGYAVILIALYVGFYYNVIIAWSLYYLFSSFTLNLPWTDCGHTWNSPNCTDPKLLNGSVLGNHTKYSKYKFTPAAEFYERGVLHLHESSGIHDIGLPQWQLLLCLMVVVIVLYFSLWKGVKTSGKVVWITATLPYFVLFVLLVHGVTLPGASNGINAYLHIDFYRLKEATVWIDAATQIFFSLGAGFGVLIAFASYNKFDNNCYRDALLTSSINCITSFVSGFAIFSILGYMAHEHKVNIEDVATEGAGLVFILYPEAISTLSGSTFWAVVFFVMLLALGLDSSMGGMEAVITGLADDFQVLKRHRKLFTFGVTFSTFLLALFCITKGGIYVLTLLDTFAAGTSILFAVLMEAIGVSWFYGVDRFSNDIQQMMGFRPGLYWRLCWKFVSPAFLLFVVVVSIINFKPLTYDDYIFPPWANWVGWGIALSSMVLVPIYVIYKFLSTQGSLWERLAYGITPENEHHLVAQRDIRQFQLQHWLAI

Exam item: Entry c1cnc(N2CCN(Cc3ccc4c(c3)OCO4)CC2)nc1 , system Sodium-dependent noradrenaline transporter (Homo sapiens): what pKi was measured?
Marked response: < 5.00

Exam item: Entry NC(CSSCC(N)C(=O)O)C(=O)O (stereo not given) , system Sodium-dependent noradrenaline transporter (Homo sapiens): what pKi was measured?
Marked response: < 5.00

Exam item: Entry N[C@@H](CCS)C(=O)O (racemic) , system Sodium-dependent noradrenaline transporter (Homo sapiens): what pKi was measured?
Marked response: < 5.00

Exam item: Entry Clc1cccc(Cl)c1N=C1NCCN1 , system Sodium-dependent noradrenaline transporter (Homo sapiens): what pKi was measured?
Marked response: 6.00

Exam item: Entry O=c1cc(O)cc2oc(-c3ccc(O)c(-c4c(O)cc(O)c5c(=O)cc(-c6ccc(O)cc6)oc45)c3)cc(O)c1-2 , system Sodium-dependent noradrenaline transporter (Homo sapiens): what pKi was measured?
Marked response: < 5.00
